Origin of measurements: patent US6737383B1

Overview of recorded Crabgrass plant response rating for various molecules
# Tested on: crabgrass
# assay-name: Test B pre/postemergence crabgrass
# Assay type: in vivo, Digitaria sanguinalis
# settings: Preemergence, Rate 500 g/ha; scale 0 to 10, 0 is no effect, 10 is complete control

- molecule: "CC(C)N(C(=O)n1oc(=O)n(CCC[Si](C)(C)C)c1=O)c1ccc(F)cc1"
  system: "crabgrass"
  Crabgrass plant response rating: 3

Crabgrass plant response rating for CC(C)N(C(=O)n1oc(=O)n(C2CCCCCC2)c1=O)C1=CCCCC1 ?
10

Crabgrass plant response rating for CC(C)N(C(=O)n1oc(=O)n(C(C)C2CC2)c1=O)c1ccc(F)cc1 (stereo not shown) ?
10

Crabgrass plant response rating for CC(C)N(C(=O)n1oc(=O)n(C(C)C(=O)N(C)C)c1=O)c1ccc(Cl)cc1 (stereo not shown) ?
10

###

# System: sugar beet
# assay-name: Test B pre/postemergence sugar beet
# Format: in vivo, Beta vulgaris
# settings: Rate 500 g/ha, Preemergence; scale 0 to 10 (0 no effect, 10 complete control)
readout: Sugarbeets plant response rating
Output: the number by itself.

Here is how some compounds turned out for Sugarbeets plant response rating.
- compound: "C#CCCn1c(=O)on(C(=O)N(c2ccc(F)cc2F)C(C)C)c1=O"
  measured-number: 7
- compound: "C#CC(C)n1c(=O)on(C(=O)N(c2ccc(F)cc2)C(C)C)c1=O (stereo not shown)"
  measured-number: 6
- compound: "CCOC(CC)n1c(=O)on(C(=O)N(c2ccc(Cl)cc2)C(C)C)c1=O (stereo not shown)"
  measured-number: 0

Sugarbeets plant response rating for CCC(C)n1c(=O)on(C(=O)N(c2ccc(F)cc2)C(C)C)c1=O (stereo not shown) ?
7

###

Overview of recorded Wheat plant response rating for various molecules
# Test system: wheat
# assay-name: Test B pre/postemergence wheat
# Assay type: in vivo, Triticum aestivum
# settings: Rate 500 g/ha, Postemergence; scale 0 to 10, 0 no effect, 10 complete control
Output: the number by itself.

Here is how some molecules turned out for Wheat plant response rating.
- molecule: "Cc1nn(C)c(C)c1-n1c(=O)on(C(=O)N(c2ccccc2)C(C)C)c1=O"
  Wheat plant response rating: 4
- molecule: "CCN(CC)C(=O)n1oc(=O)n(-c2cccc3c2CCCC3)c1=O"
  Wheat plant response rating: 0

Wheat plant response rating for CC(C)N(C(=O)n1oc(=O)n(Cc2cccs2)c1=O)c1ccc(F)cc1 ?
0

Wheat plant response rating for Cc1ccccc1Cn1c(=O)on(C(=O)N(c2ccc(F)cc2)C(C)C)c1=O ?
0

Wheat plant response rating for CC(C)N(C(=O)n1oc(=O)n(C2CCCCC2C(F)(F)F)c1=O)c1ccc(F)cc1 (centres unmarked) ?
0

###

Overview of recorded Plant response rating, Sugarbeets for various molecules
# System: sugar beet
# assay-name: Test B pre/postemergence sugar beet
# Assay type: in vivo, Beta vulgaris
# settings: Postemergence, Rate 62 g/ha; scale 0 to 10, 0 is no effect, 10 is complete control
Output: the number by itself.

Here is how some molecules turned out for Plant response rating, Sugarbeets.
- molecule: "CC(C)N(C(=O)n1oc(=O)n(CCC(=O)N(C)C)c1=O)c1ccccc1"
  Plant response rating, Sugarbeets: 0
- molecule: "CCOP(=O)(OCC)C(C)n1c(=O)on(C(=O)N(c2ccc(Cl)cc2)C(C)C)c1=O (stereo not shown)"
  Plant response rating, Sugarbeets: 0
- molecule: "CC(C)N(C(=O)n1oc(=O)n(CCCC#N)c1=O)c1ccc(F)cc1"
  Plant response rating, Sugarbeets: 1

Next molecule, Plant response rating, Sugarbeets to be filled in.
Plant response rating, Sugarbeets for C#CCn1c(=O)on(C(=O)N(c2ccc(F)cc2)C(C)C)c1=O ?
0

###

Overview of recorded Barnyardgrass plant response rating for various molecules
# System: bamyardgrass
# assay-name: Test B flood test barnyardgrass
# Type: in vivo, Echinochloa crus-galli
# settings: Rate 500 g/ha; Pre-emergence; flood test species; scale 0 to 10 (0 no effect, 10 complete control)
# Procedure: At the same time, these crop and weed species were also treated with postemergence applications of test chemicals formulated in the same manner. Plants ranged in height from 2 to 18 cm (1- to 4-leaf stage) for postemergence treatments. […] Treated plants and controls were maintained in a greenhouse for twelve to sixteen days, after which all species were compared to controls and visually evaluated. […]
Output: the number by itself.

Barnyardgrass plant response rating for CC(C)N(C(=O)n1oc(=O)n(-c2ccc3ccccc3c2)c1=O)c1ccc(F)cc1F [Compound 335] ?
4

Barnyardgrass plant response rating for Cc1c(-n2c(=O)on(C(=O)N(c3ccc(F)cc3F)C(C)C)c2=O)ccc2ccccc12 [Compound 337] ?
5

Barnyardgrass plant response rating for CC(C)N(C(=O)n1oc(=O)n(C2CCCC2)c1=O)c1ccc(F)cc1F [Compound 284] ?
9

Barnyardgrass plant response rating for CC(C)N(C(=O)n1oc(=O)n(C2CCCCCC2)c1=O)c1ccc(Cl)cc1 [Compound 339] ?
9

###

# Tested on: Alexandergrass
# assay-name: Test D Alexandergrass
# Format: in vivo, Brachiaria plantaginea
# settings: Rate 32 g/ha; Preemergence; 0 to 100 scale, 0 no injury, 100 complete control
readout: Plant response rating, Alexandergrass
Output: the number by itself.

- compound: "CC(C)N(C(=O)n1oc(=O)n(Cc2cccs2)c1=O)c1ccccc1 [Compound 103]"
  measured-number: 0
- compound: "C=CCn1c(=O)on(C(=O)N(c2ccccc2)C(C)C)c1=O [Compound 93]"
  measured-number: 10
- compound: "Cc1cccc(C)c1-n1c(=O)on(C(=O)N(c2ccccc2)C(C)C)c1=O [Compound 46]"
  measured-number: 0

Next compound, Plant response rating, Alexandergrass to be filled in.
Plant response rating, Alexandergrass for Cc1ccccc1-n1c(=O)on(C(=O)N(c2ccc(F)cc2)C(C)C)c1=O [Compound 4] ?
20

###

# System: crabgrass
# assay-name: Test B pre/postemergence crabgrass
# Type: in vivo, Digitaria sanguinalis
# settings: Rate 62 g/ha, Preemergence; scale 0 to 10
readout: Crabgrass plant response rating
Output: the number by itself.

- compound: "CCC(C)n1c(=O)on(C(=O)N(c2ccc(F)cc2)C(C)C)c1=O (stereo not shown) [Compound 751]"
  system: "crabgrass"
  Crabgrass plant response rating: 10
- compound: "C#CC(C)n1c(=O)on(C(=O)N(c2ccc(F)cc2)C(C)C)c1=O (stereo not shown) [Compound 763]"
  system: "crabgrass"
  Crabgrass plant response rating: 9
- compound: "Cc1nc(C(C)n2c(=O)on(C(=O)N(c3ccccc3)C(C)C)c2=O)sc1C (stereo not shown) [Compound 756]"
  system: "crabgrass"
  Crabgrass plant response rating: 4

Next compound, Crabgrass plant response rating to be filled in.
Crabgrass plant response rating for C#CCn1c(=O)on(C(=O)N(c2ccc(F)cc2)C(C)C)c1=O [Compound 743] ?
9

###

# Tested on: pigweed
# assay-name: Test B pre/postemergence pigweed
# Format: in vivo, Amaranthus retroflexus
# settings: Preemergence, Rate 250 g/ha; scale of 0 to 10 where 0 is no effect and 10 is complete control
hey, just use 1 (yes) if measured Plant response rating, Redroot pigweed is less than 6, otherwise 0 (no)

Here are 2 compounds together with their reported answers.
- input-smiles: "CC(C)N(C(=O)n1oc(=O)n(C2CCCCC2)c1=O)c1ccc(Cl)cc1"
  system: "pigweed"
  group: "0 (no)"
- input-smiles: "Cc1ccccc1-n1c(=O)on(C(=O)N(c2ccc(Cl)cc2)C(C)C)c1=O"
  system: "pigweed"
  group: "1 (yes)"

Say whether its Plant response rating, Redroot pigweed is strictly beneath 6. Entry: C=CCn1c(=O)on(C(=O)N(c2ccccc2)C(C)C)c1=O
0 (no)

Say whether its Plant response rating, Redroot pigweed is strictly beneath 6. Entry: CC(C)N(C(=O)n1oc(=O)n(C2CCCCC2)c1=O)c1ccc(F)cc1
0 (no)

Say whether its Plant response rating, Redroot pigweed is strictly beneath 6. Entry: CC(C)N(C(=O)n1oc(=O)n(-c2cc(Cl)cc(Cl)c2)c1=O)C1=CCOCC1
1 (yes)

Say whether its Plant response rating, Redroot pigweed is strictly beneath 6. Entry: CCN(CC)C(=O)n1oc(=O)n(-c2cccc3c2CCCC3)c1=O
1 (yes)

Say whether its Plant response rating, Redroot pigweed is strictly beneath 6. Entry: CCN(C(=O)n1oc(=O)n(-c2c(C)cc(C)cc2C)c1=O)C1CCCCC1
1 (yes)

Say whether its Plant response rating, Redroot pigweed is strictly beneath 6. Entry: Cc1ccccc1-n1c(=O)on(C(=O)N(c2ccc(C#N)cc2)C(C)C)c1=O
1 (yes)

###

# Test system: bamyardgrass
# assay-name: Test B flood test barnyardgrass
# Assay type: in vivo, Echinochloa crus-galli
# settings: Postemergence, Rate 62 g/ha; scale 0 to 10, 0 is no effect, 10 is complete control
Overview of recorded Barnyardgrass plant response rating for various compounds
Output: the number by itself.

Here is how some compounds turned out for Barnyardgrass plant response rating.
- input-smiles: "CC(C)Oc1cc(-n2c(=O)on(C(=O)N(c3ccc(F)cc3)C(C)C)c2=O)c(Cl)cc1Cl"
  measured-number: 0
- input-smiles: "CCN(C(=O)n1oc(=O)n(-c2ccc(C)cc2C)c1=O)C1CCCCC1"
  measured-number: 0

Barnyardgrass plant response rating for Cc1nn(C)c(C)c1-n1c(=O)on(C(=O)N(c2ccccc2)C(C)C)c1=O ?
0
